System: RAW 264.7 cells
Assay: In vitro toxicity (CellTiter-Glo cell viability), RAW 264.7;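 further: percent of untreated cells luminescence signal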
Format: cell-based
Details: mRNA (SEQ ID NO: 2) LNP, 1 μg/mL, 72 hours post transfection
measured.property: In vitro Viability RAW (%)
Write the number in % without appending the unit.

Task item: Given the entry CCCCC/C=C\C/C=C\CCCCCCCCN(CCCCCCCC(=O)OC(CCCCCCCC)CCCCCCCC)CCOC(=O)NCCN(C)C , report its measured In vitro Viability RAW.
Reply: 97

Task item: And the next one, CCCCC/C=C\C/C=C\CCCCCCCCN(CCCCCC(=O)OCC(CCCCCCCC)CCCCCCCCCC)CCOC(=O)NCCN(C)C (stereo not drawn) ?
Reply: 96

Task item: And the next one, CCCCCCCCC(CCCCCC)C(=O)OCCCCCCCCN(CCCCCCCCOC(=O)C(CCCCCC)CCCCCCCC)CCCOC(=O)NCCCN(CC)CC (stereo not drawn) ?
Reply: 100

Task item: And the next one, CCCCCCCCCCC(CCCCCCCC)COC(=O)CCCCCN(CCCCCC(=O)OCC(CCCCCCCC)CCCCCCCCCC)CCOC(=O)NCCN1CCCCC1 (stereo not drawn) ?
Reply: 83

Task item: And the next one, CCCCC/C=C\C/C=C\CCCCCCCCN(CCCCCC(=O)OCCCCCCCCCCC)CCOC(=O)NCc1ncc[nH]1 ?
Reply: 96

Task item: And the next one, CCCCCCCCC(CCCCCCCC)OC(=O)CCCCCCCN(CCCCCCCCOC(=O)C(CCCCCC)CCCCCCCC)CCCOC(=O)NCCN1CCCCC1 (stereo not drawn) ?
Reply: 94

Task item: And the next one, CCCCCCCCCCC(CCCCCCCC)COC(=O)CCCCCN(CCCCCCCCOC(=O)C(CCCCCC)CCCCCCCC)CCOC(=O)NCCN(C)C (stereo not drawn) ?
Reply: 80

Task item: And the next one, CCCCCCCCCCC(CCCCCCCC)COC(=O)CCCCCN(CCCCCC(=O)OCC(CCCCCCCC)CCCCCCCCCC)CCCOC(=O)NCCN1CCCC1 (stereo not drawn) ?
Reply: 90

Task item: And the next one, CCCCC/C=C\C/C=C\CCCCCCCCN(CCCCCCCC(=O)OC(CCCCCCCC)CCCCCCCC)CCOC(=O)NCCCN(CC)CC ?
Reply: 96

Task item: And the next one, CCCCC/C=C\C/C=C\CCCCCCCCN(CCCCCCCC/C=C\C/C=C\CCCCC)CCOC(=O)CCCN(C)C [Lipid A, reference compound] ?
Reply: 96

Task item: And the next one, CCCCC/C=C\CCOC(=O)CCCCCCCN(CCCCCCCC(=O)OCC/C=C\CCCCC)CCOC(=O)CCCN(C)C [Lipid C, reference compound] ?
Reply: 88

Task item: And the next one, CCCCCCCCC(CCCCCC)C(=O)OCCCCCCCCN(CCCCCCCCOC(=O)C(CCCCCC)CCCCCCCC)CCCOC(=O)NCCN1CCCCC1 (stereo not drawn) ?
Reply: 106

Task item: And the next one, CCCCCCCCC(CCCCCCCC)OC(=O)CCCCCCCN(CCCCCCCCOC(=O)C(CCCCCC)CCCCCCCC)CCCOC(=O)NCCCN(C)C (stereo not drawn) ?
Reply: 77

Task item: And the next one, CCCCCCCCC(CCCCCC)C(=O)OCCCCCCCCN(CCCCCCCCCCC(=O)OCCCCCC)CCOC(=O)NCCN(C)C (stereo not drawn) ?
Reply: 88

Task item: And the next one, CCCCCCCCC(CCCCCC)C(=O)OCCCCCCCCN(CCCCCCCCOC(=O)C(CCCCCC)CCCCCCCC)CCOC(=O)NCCN(C)C (stereo not drawn) ?
Reply: 77

Task item: And the next one, CCCCCCCCC(CCCCCC)C(=O)OCCCCCCCCN(CCCCCCCCOC(=O)C(CCCCCC)CCCCCCCC)CCCOC(=O)NCc1ncc[nH]1 (stereo not drawn) ?
Reply: 78

Task item: And the next one, CCCCCCCCCCC(CCCCCCCC)COC(=O)CCCCCN(CCCCCC(=O)OCC(CCCCCCCC)CCCCCCCCCC)CCCOC(=O)NCCN1CCCCC1 (stereo not drawn) ?
Reply: 107

Task item: And the next one, CCCCC/C=C\C/C=C\CCCCCCCCN(CCCCCCCC(=O)OC(CCCCCCCC)CCCCCCCC)CCCOC(=O)NCCCn1ccnc1 ?
Reply: 83

Task item: And the next one, CCCCC/C=C\C/C=C\CCCCCCCCN(CCCCCCCC(=O)OC(CCCCCCCC)CCCCCCCC)CCOC(=O)NCCN1CCCCC1 ?
Reply: 109

Task item: And the next one, CCCCCCCCCCC(CCCCCCCC)COC(=O)CCCCCN(CCCCCC(=O)OCC(CCCCCCCC)CCCCCCCCCC)CCOC(=O)NCCN1CCCC1 (stereo not drawn) ?
Reply: 75

Task item: And the next one, CCCCCCCCCC(=O)OCCCCCCCN(CCCCCCCCOC(=O)C(CCCCCC)CCCCCCCC)CCOC(=O)NCCN1CCCC1 (stereo not drawn) ?
Reply: 77
